- test-target: BLM HRDC domain WT (Homo sapiens, UniProt P54132 1210-1294)
- Sequence (P54132 1210-1294): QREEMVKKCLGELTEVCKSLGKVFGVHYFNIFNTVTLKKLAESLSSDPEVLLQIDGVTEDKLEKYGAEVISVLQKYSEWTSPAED
- protocol-description: EMSA
measure: Kd

Input line: Dear colleague, I am looking for the recorded Kd of the following binder: GCGCATATGGAGCGTTTCCAAAGTCTTAG (ssDNA) [1SD* ssDNA 29 nt]
Output line: ~100 µM

Measured values drawn from paper PMC2995041 for this set.
